- System: primary acute myeloid leukemia (AML) cells obtained from patients
- Method summary: Kinase inhibitor library screening with and without NSC130362, primary AML cells
- Assay type: cell-based, Human
- Condition context: ratio of EC50 for inhibitor to EC50 for inhibitor/NSC130362 combination; NSC130362 10 μM; Screen N 3
Outcome measure: EC50 decrease, fold (Screen N 3)

Molecule: CC1(C)CNc2cc(NC(=O)c3cccnc3NCc3ccncc3)ccc21
Tested target: primary acute myeloid leukemia (AML) cells obtained from patients
Outcome measure: EC50 decrease, fold (Screen N 3)
Measured value: 1.0 fold
--
Molecule: C=CC(=O)Nc1cc2c(Nc3ccc(F)c(Cl)c3)ncnc2cc1OCCCN1CCOCC1
Tested target: primary acute myeloid leukemia (AML) cells obtained from patients
Outcome measure: EC50 decrease, fold (Screen N 3)
Measured value: 424.3 fold
--
Molecule: NC1(c2ccc(-c3nc4ccn5c(=O)[nH]nc5c4cc3-c3ccccc3)cc2)CCC1
Tested target: primary acute myeloid leukemia (AML) cells obtained from patients
Outcome measure: EC50 decrease, fold (Screen N 3)
Measured value: 1.0 fold

// query Determine its reported EC50 decrease, fold (Screen N 3): `CCS(=O)(=O)O.COC(=O)c1ccc2c(c1)NC(=O)/C2=C(\Nc1ccc(N(C)C(=O)CN2CCN(C)CC2)cc1)c1ccccc1`
// result 0.14 fold

---

- Test system: primary acute myeloid leukemia (AML) cells obtained from patients
- Method summary: Kinase inhibitor library screening with and without NSC130362, primary AML cells
- Type: cell-based, Human
- Condition context: ratio of EC50 for inhibitor to EC50 for inhibitor/NSC130362 combination; NSC130362 10 μM; Screen N 3
Outcome measure: EC50 decrease, fold (Screen N 3) (fold)
Numbers only, in fold.

Past entries and their recorded results:
Molecule: Cn1cnc2c(F)c(Nc3ccc(Br)cc3Cl)c(C(=O)NOCCO)cc21
Tested target: primary acute myeloid leukemia (AML) cells obtained from patients
Reading unit: fold
EC50 decrease, fold (Screen N 3): 1.0
//
Molecule: COCCn1c2c([n+](Cc3cnccn3)c1C)C(=O)c1ccccc1C2=O
Tested target: primary acute myeloid leukemia (AML) cells obtained from patients
Reading unit: fold
EC50 decrease, fold (Screen N 3): 1.0
//
Molecule: CCc1cc(Nc2nccc(-c3c(-c4ccc(OC)c(C(=O)Nc5c(F)cccc5F)c4)nc4ccccn34)n2)c(OC)cc1N1CCC(N2CCN(S(C)(=O)=O)CC2)CC1 [GSK-1904529A]
Tested target: primary acute myeloid leukemia (AML) cells obtained from patients
Reading unit: fold
EC50 decrease, fold (Screen N 3): 44.8

Next item in the queue.
// query Determine its reported EC50 decrease, fold (Screen N 3): `Cc1[nH]c2ccccc2c1CCNCc1ccc(/C=C/C(=O)NO)cc1`
// result 0.0014

---

- System: breast carcinoma HCC1187 cells
- Method summary: cells
- Assay type: cell-based
- Condition context: human
Provide the recorded Selective cytotoxicity index HCC 1187 ATO for the entries that follow.
Numbers only.

Compound: CC1CN1C1=C(Cl)C(=O)c2ccccc2C1=O (centres unmarked) [compound 16]
Measured value: 128.6
//
Compound: CC1=C(N2CC2)C(=O)c2ccccc2C1=O [compound 55]
Measured value: 15.8
//
Compound: O=C1C(Cl)=C(NCCO)C(=O)c2ccccc21 [compound 17]
Measured value: 46.7
//
Compound: COC1=C(N(C)C)C(=O)c2ccccc2C1=O [compound 53]
Measured value: 9.5

Next item in the queue.
// query Determine its reported Selective cytotoxicity index HCC 1187 ATO: COC1=C(N2CC2)C(=O)c2ccccc2C1=O [compound 54]
// result 40.9
